# Assay protocol: chemical genetic growth profiling, strain panel (AID 1159580);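 further: tested at 20 µM; growth read once vehicle control cultures reached saturation at 30 °C; lower values mean less growth of the strain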
# Particulars: S. cerevisiae deletion strains, growth OD, locus YPR141C, strain kar3
About 2,000 (36%) of roughly 5,500 compounds were called active. Roughly 18% stayed inconclusive and do not appear here. No stated cut-off is given here; in the data, active means normalized growth mostly below about 0.91 (no sharp cut-off); inconclusive means no clear call, values can overlap the other calls; inactive means mostly above about 0.92. This is one part of the list.
Respond only with the outcome that fits, drawn from Yes (active), No (inactive)

Field: example entries. Status: answers known.
{"Compound": "NC[C@H](O)c1ccc(O)c(O)c1", "Class name": "No"}
{"Compound": "c1ccc2c3c([nH]c2c1)CNCC3", "Class name": "No"}
{"Compound": "COc1ccc(C(Cl)=C(c2ccc(OC)cc2)c2ccc(OC)cc2)cc1", "Class name": "No"}

Query string: Please indicate how the test categorized CC/C(=C(\c1ccccc1)c1ccc(OCCN(C)C)cc1)c1ccccc1 .
Result string: No

Query string: Assay outcome for O=C(O)CF : what was it?
Result string: No

Query string: Can you look up the reported call for COc1cc(C(=O)NCc2ccc(OCCN(C)C)cc2)cc(OC)c1OC for me?
Result string: No

Query string: For CCN(CC)CCOc1ccc2c(c1)C(=O)c1cc(OCCN(CC)CC)ccc1-2 , what call appears in the results of this test?
Result string: No

Query string: // return assay outcome for Cc1occc(=O)c1O
Result string: No

Query string: Dear colleague, could you share the recorded outcome for Oc1c(Br)cc(Br)c2cccnc12 when you have a moment?
Result string: Yes

Query string: Which outcome did this test record for the compound CCN(CC)CCOc1ccc(/C(=C(\Cl)c2ccccc2)c2ccccc2)cc1 ?
Result string: No

Query string: So what was the verdict on C1CCN2C[C@@H]3C[C@H](CN4CCCC[C@@H]34)[C@H]2C1 in this test?
Result string: No
